target: cellular TGF-β R1 ALK5 (Homo sapiens, UniProt P36897); assay: Cellular inhibition of ALK5 (CellSensor SBE-bla HEK 293T beta-lactamase reporter); conditions: cellular inhibition of ALK5, SBE-bla HEK 293T cells, TGFb-1 stimulated 5 hours; average where measured in multiple experiments
Sequence (P36897 34-503): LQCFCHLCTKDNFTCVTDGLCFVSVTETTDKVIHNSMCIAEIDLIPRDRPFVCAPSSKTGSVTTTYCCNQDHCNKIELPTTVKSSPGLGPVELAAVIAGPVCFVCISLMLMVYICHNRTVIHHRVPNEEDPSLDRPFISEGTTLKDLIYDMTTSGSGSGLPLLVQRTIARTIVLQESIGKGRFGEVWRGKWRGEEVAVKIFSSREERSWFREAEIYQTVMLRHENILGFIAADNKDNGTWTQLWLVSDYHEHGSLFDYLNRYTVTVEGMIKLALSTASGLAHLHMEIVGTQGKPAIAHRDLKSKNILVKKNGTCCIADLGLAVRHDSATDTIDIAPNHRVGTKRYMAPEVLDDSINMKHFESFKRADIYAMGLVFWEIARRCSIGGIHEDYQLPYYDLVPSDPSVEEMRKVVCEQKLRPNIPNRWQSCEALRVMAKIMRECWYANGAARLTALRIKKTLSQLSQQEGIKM
pIC50: −log10 of the molar value.
endpoint: pIC50

Cc1ccc(F)c(-c2cc(Nc3c(F)cnc4cn(C[C@H](C)O)nc34)ccn2)n1 [Example 100A]    5.90

(P) Cc1ccc(F)c(-c2cc(Nc3c(F)cnc4cn(C)nc34)c(C)cn2)n1
(Q) CNC(=O)n1ncc2nccc(Nc3ccnc(-c4cc(Cl)c(F)cc4F)c3)c21
Exercise: Identify the entry with the larger pIC50. Options: P and Q Please reply using the label of the selected record.
Key: P
(P: 8.00, Q: 6.40)
